Entries annotated with measured TGI
- Tested on: DU-145 prostate
- experiment: NCI tumour cell line growth inhibition, 48 h

Worked cases, TGI given:
molecule	TGI
CCN(C(=O)N1CCN(c2cc3c(cc2F)c(=O)c(C(=O)O)cn3C2CC2)CC1)c1nc(-c2ccc(Cl)cc2)cs1	> 100 µM
COc1ccc(C2[C@@H](c3ccccc3)C(=O)N2c2cc(OC)c(OC)c(OC)c2)cc1F (stereo not given in full)	> 100 µM
O=C(NCc1ccccc1)c1n[nH][nH]c1=O	> 100 µM
Nc1ccc(C2=NNC(=O)Cc3cc4c(cc32)OCCO4)cc1Cl	> 50 µM

Okay, now this molecule:
Q: For CC(=O)Nn1c(=S)[nH]c2ccccc21 , what is its reported TGI?
A: > 100 µM
